- TARGET_OF_ASSAY: Protein Mdm4 (Homo sapiens) + E3 ubiquitin-protein ligase Mdm2 (Homo sapiens) (UniProt O15151+Q00987)
- Sequence (O15151 whole entry, looked up): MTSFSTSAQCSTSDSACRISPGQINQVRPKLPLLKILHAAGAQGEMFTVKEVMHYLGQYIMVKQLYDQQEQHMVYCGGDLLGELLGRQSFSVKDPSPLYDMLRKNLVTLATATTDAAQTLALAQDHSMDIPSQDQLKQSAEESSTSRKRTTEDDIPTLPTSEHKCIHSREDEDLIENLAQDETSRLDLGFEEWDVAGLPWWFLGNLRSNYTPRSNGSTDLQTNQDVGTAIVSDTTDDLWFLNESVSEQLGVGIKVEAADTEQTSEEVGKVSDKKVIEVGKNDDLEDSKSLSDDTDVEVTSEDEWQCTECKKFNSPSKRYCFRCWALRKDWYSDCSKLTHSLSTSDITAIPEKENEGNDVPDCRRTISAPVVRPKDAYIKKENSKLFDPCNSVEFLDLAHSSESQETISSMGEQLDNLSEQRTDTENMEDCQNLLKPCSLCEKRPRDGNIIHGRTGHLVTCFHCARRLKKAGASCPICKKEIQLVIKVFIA
- Sequence (Q00987 whole entry, looked up): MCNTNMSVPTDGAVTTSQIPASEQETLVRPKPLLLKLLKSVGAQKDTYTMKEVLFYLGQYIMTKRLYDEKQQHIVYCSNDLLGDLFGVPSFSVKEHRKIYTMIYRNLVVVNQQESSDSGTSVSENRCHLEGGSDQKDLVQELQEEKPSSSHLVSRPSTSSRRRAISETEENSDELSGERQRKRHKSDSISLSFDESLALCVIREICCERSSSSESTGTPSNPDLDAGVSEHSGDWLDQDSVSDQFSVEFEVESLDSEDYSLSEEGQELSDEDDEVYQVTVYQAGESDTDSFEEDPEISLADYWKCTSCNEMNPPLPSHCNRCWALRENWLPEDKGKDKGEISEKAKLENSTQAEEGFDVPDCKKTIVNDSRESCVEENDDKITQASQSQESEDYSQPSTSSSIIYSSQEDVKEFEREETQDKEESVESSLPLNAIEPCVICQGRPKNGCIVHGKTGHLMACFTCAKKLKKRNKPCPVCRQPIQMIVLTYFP
- ASSAY_COMMENT: inhibitors of human Mdm2-MdmX association, primary screen, cell-based, luminescence, split luciferase, SaOS-2, uHTS (AID 485346)
- CONDITION_LABEL: SaOS-2 split-luciferase Mdm2/MdmX complementation, at 8 µM, stronger effect = higher value
Out of some 330,000 compounds screened, about 10,000 (3%) were called active. The full list was thinned out, with actives kept by preference.
REPORTED_METRIC: inhibition (%)
Answers are plain numbers, in %.

INSERT INTO measurements (compound, recorded_result) VALUES
  ('CC[C@H]1CN2CCc3cc(OC)c(OC)cc3[C@@H]2C[C@@H]1C[C@H]1NCCc2cc(OC)c(OC)cc21', 91.7),
  ('O=C(NCc1ccccc1)C1=C[C@H](C2CC2)C[C@H](OCc2ccc(CO)cc2)O1', -19),
  ('O=C(CCNC(=O)c1ccc(Cl)cc1)NC1CCCc2ccccc21 (stereo not given)', 82.7);

Give inhibition for each of the items listed below.
1. COc1cc(OC)c(/C=N/NC(=O)c2ccc([N+](=O)[O-])cc2)cc1Br
2. CC(C)Oc1ccc(S(=O)(=O)N2CCOCC2)cc1NC(=O)C1CCCC1
3. COC(=O)c1cc(OCC(=O)NC2CCCc3ccccc32)cc(C(=O)OC)c1 (stereo not given)
4. Cc1cccc(Nc2nc(-c3ccccc3)cs2)n1
5. O=C(NCc1ccccc1)C1=C[C@@H](C2CCCCC2)C[C@@H](OCc2ccc(CO)cc2)O1
6. COc1ccc(CN2[C@@H](CC(=O)O)c3cc(F)ccc3S2(=O)=O)cc1
7. COc1ccccc1CC(=O)Nc1ccc([N+](=O)[O-])cc1OC

Ans:
1. 46.6
2. -52.3
3. 1.41
4. -222
5. 55.5
6. -1.99
7. 19.7

###

Kindly supply the reported inhibition values for the records listed here.
- TARGET_OF_ASSAY: Protein Mdm4 (Homo sapiens) + E3 ubiquitin-protein ligase Mdm2 (Homo sapiens) (UniProt O15151+Q00987)
- ASSAY_COMMENT: inhibitors of human Mdm2-MdmX association, primary screen, cell-based, luminescence, split luciferase, SaOS-2, uHTS (AID 485346)
- CONDITION_LABEL: SaOS-2 split-luciferase Mdm2/MdmX complementation, at 8 µM, stronger effect = higher value
Screen size: about 330,000 compounds; about 10,000 (3%) were called active. For the sample, actives were picked, then their nearest neighbours and some compounds at random.
Give bare numbers, in %.

Known results for molecules:
INSERT INTO measurements (molecule, recorded_result) VALUES
  ('NC(=O)c1nsc(C(=O)N(CCCN2CCOCC2)C(C(=O)NC2CCCCC2)c2ccc(Cl)cc2)c1N (stereo not drawn)', -0.899),
  ('CCOc1ccc2nc(Cl)c(C3CC(c4ccccc4)=NN3C(=O)c3cccs3)cc2c1 (stereo not drawn)', 95),
  ('COc1ccc(C2=NN(C(=O)c3ccccc3C(=O)O)C(c3ccccc3O)C2)cc1 (stereo not drawn)', -30.7);

Give inhibition for each of the items listed below.
1. CC(NC(=O)c1ccc(N2CCNCC2)c([N+](=O)[O-])c1)C12CC3CC(CC(C3)C1)C2 (stereo not drawn)
2. CC(C)c1nccn1S(=O)(=O)c1cc([N+](=O)[O-])ccc1Cl

Ans:
1: 101; 2: 25.4

Give inhibition for each of the items listed below.
1. CCC(C)NC(=O)c1ccc(N2CCC3(CC2)OCCO3)c([N+](=O)[O-])c1 (stereo not drawn)
2. CCc1nc(C)cn1S(=O)(=O)c1cc(OC)c(C)cc1C

Ans:
1. 10.6
2. 8.72

Q: Using the record for CCn1cc(CCC(=O)NCc2ccc(F)cc2)c2ccccc21 , report its inhibition.
Ans: -7.13

###

- TARGET_OF_ASSAY: Protein Mdm4 (Homo sapiens) + E3 ubiquitin-protein ligase Mdm2 (Homo sapiens) (UniProt O15151+Q00987)
- ASSAY_COMMENT: inhibitors of human Mdm2-MdmX association, primary screen, cell-based, luminescence, split luciferase, SaOS-2, uHTS (AID 485346)
- CONDITION_LABEL: SaOS-2 split-luciferase Mdm2/MdmX complementation, at 8 µM, stronger effect = higher value
About 10,000 (3%) of roughly 330,000 compounds were called active. The list comes from a sample in which actives are over-represented; it also holds close analogues and randomly drawn compounds.
REPORTED_METRIC: inhibition (%)
Numbers only, in %.

Give inhibition for each of the items listed below.
1. COc1cc(OC)cc(C(=O)NC2CCN(C(=O)N3c4ccccc4Sc4ccccc43)CC2)c1
2. CCN(CC)CCn1cnc2c1c(=O)n(CCOC(=O)c1cc(OC)c(OC)c(OC)c1)c(=O)n2C

Ans:
[9.25, 11.6]

Give inhibition for each of the items listed below.
1. CCCc1ccc(OCC(=O)NNC(=S)NC(=O)c2ccco2)cc1
2. Cc1ccccc1NC(=O)NCC1CCN(Cc2cccc(Cl)c2)CC1
3. COc1ccc(-c2sc3ccc(OC)cc3c2C#Cc2ccccn2)cc1
4. Cc1cccc(-c2nc3ccc(C(=O)NCCN4CCN(C)CC4)cc3nc2-c2cccc(C)c2)c1
5. CC(C)Oc1ccc(CCC(=O)NNC(=S)NCc2ccccc2)cc1

Ans:
1: 50; 2: 8.22; 3: 40.5; 4: 93.2; 5: -12.8

###

- TARGET_OF_ASSAY: Protein Mdm4 (Homo sapiens) + E3 ubiquitin-protein ligase Mdm2 (Homo sapiens) (UniProt O15151+Q00987)
- ASSAY_COMMENT: inhibitors of human Mdm2-MdmX association, primary screen, cell-based, luminescence, split luciferase, SaOS-2, uHTS (AID 485346)
- CONDITION_LABEL: SaOS-2 split-luciferase Mdm2/MdmX complementation, at 8 µM, stronger effect = higher value
Among all 330,000 compounds or so, about 10,000 (3%) were called active. This is one part of a sample in which actives are shown more often than they occur.
Entries get a class label from measured inhibition. See ranges: low: < 20%; moderate: ≥ 20% and < 50%; high: ≥ 50%

INSERT INTO results (compound, class_label) VALUES
  ('CCOc1ccc2nc(N(CCCN(C)C)C(=O)c3ccc(C(=O)c4ccccc4)cc3)sc2c1', 'moderate'),
  ('CC(=O)c1ccc(NC(=S)N(Cc2ccccc2)C(C)C2CC2)cc1 (stereo unspecified)', 'moderate');

Q: // bin(item) where item = CCOC(=O)c1cc(NC(=O)c2ccc(Cl)cc2)c(=O)oc1-c1ccccc1
Ans: high

Q: // bin(item) where item = COc1ccccc1-c1nnc2n1N=C(c1ccc(OC(F)F)c(OCC3CC3)c1)CS2
Ans: moderate

Q: // bin(item) where item = COc1ccc(N(C(=O)c2ccc(C)cc2)S(=O)(=O)c2cccs2)cc1
Ans: low

Q: // bin(item) where item = CC(=O)c1cc(NC(=O)c2ccccc2)c(=O)oc1/C=C/N(C)C
Ans: low

Q: // bin(item) where item = CN(C)CCCN(C(=O)c1ccc(S(=O)(=O)N2CCCCCC2)cc1)c1nc2ccc(Br)cc2s1
Ans: high

Q: // bin(item) where item = COc1cc(C(C(=O)NC2CCCC2)N(Cc2ccccc2)C(=O)c2snc(C(N)=O)c2N)ccc1O (stereo unspecified)
Ans: moderate

###

- TARGET_OF_ASSAY: Protein Mdm4 (Homo sapiens) + E3 ubiquitin-protein ligase Mdm2 (Homo sapiens) (UniProt O15151+Q00987)
- ASSAY_COMMENT: inhibitors of human Mdm2-MdmX association, primary screen, cell-based, luminescence, split luciferase, SaOS-2, uHTS (AID 485346)
- CONDITION_LABEL: SaOS-2 split-luciferase Mdm2/MdmX complementation, at 8 µM, stronger effect = higher value
Screen size: about 330,000 compounds; about 10,000 (3%) were called active. For the sample, actives were picked, then their nearest neighbours and some compounds at random.
Kindly supply the reported inhibition values for the records listed here.
Numbers only, in %.

Known results for compounds:
INSERT INTO assay_data (compound, reported_metric, recorded_result) VALUES
  ('CC(C)(C)OC(=O)NNc1c2ccccc2nc2ccccc12', 'inhibition', 95.7),
  ('CCOP(=O)(OCC)C(Nc1cccc(C)c1)c1ccc(F)cc1 (centres undefined)', 'inhibition', -2.51),
  ('Cc1ccccc1NC(=O)NNC(=O)OC(C)(C)C', 'inhibition', 20.7),
  ('CCCCCOC(=O)C1=C(C)Nc2nnnn2C1c1ccc(OC)c(OC)c1OC (centres undefined)', 'inhibition', -18),
  ('NS(=O)(=O)c1ccc(CNC(=O)c2cccc(S(=O)(=O)N3CCc4ccccc43)c2)cc1', 'inhibition', 27.6);

Give inhibition for each of the items listed below.
1. Cc1nn(CC(=O)NCCc2ccccc2)c(=O)c2cc3occc3n12
2. CCOC(=O)C(Sc1ncc(C#N)c(N)n1)C(C)C (centres undefined)

Ans:
1: 19; 2: 15.2

Give inhibition for each of the items listed below.
1. CSCC[C@H](NC(=O)NCc1cccs1)C(=O)O
2. Cc1ccnc(SCC(=O)Nc2cccc(S(=O)(=O)N3CCOCC3)c2)n1
3. CCOC(=O)/C=c1\s/c(=C\c2ccccc2OC)c(=O)n1CC(=O)N1CCOCC1
4. Cc1cc(O)c(C(=O)/C=C/c2c(F)c(F)c(F)c(F)c2F)c(=O)o1
5. Cc1cc(C)nc(N2CCC(C(=O)Nc3ccc4c(c3)OCCO4)CC2)n1
6. CC(Sc1nnc(-c2ccccc2F)n1C1CC1)C(N)=O (centres undefined)
7. CCOc1cc(N2CCOCC2)c(OCC)cc1NC(=O)COc1cccc(Cl)c1

Ans:
3.11
15.8
11.5
8.23
15.6
2.33
-4.41
